# Test system: HOP-92 NSCLC
# test.name: NCI-60 one-dose screen, 48 h
# measurement.parameters: 10 µM unless noted
Compounds without any hit were thinned out: in the full panel of roughly 83,000, 20% have a hit. Activity calls are given as the source filed them. How the source made its calls: active means growth percent below 10; inactive means the rest.
Respond with a class label; see 1 = active, -1 = inactive

* CCCCCCCCCCCCNC(=O)[C@H]1CSC(c2ccc(OC)c(F)c2)N1 (some centres undefined) | 1

**Q:** Please share the test call associated with `COc1cc2c(c(OC)c1OC)-c1ccc(N=NC(N)=S)c(=O)cc1[C@@H](NC(C)=O)CC2` .
**A:** -1

**Q:** Please share the test call associated with `Cc1cc(=O)oc2cc(Oc3nc(-c4cccs4)cn4c(-c5cccs5)cnc34)ccc12` .
**A:** 1

**Q:** Please share the test call associated with `C=C1C(=O)O[C@H]2[C@H]1CC/C(Cn1cc(Cc3c[nH]c4ccccc34)nn1)=C\CC[C@@]1(C)O[C@@H]21` .
**A:** 1

**Q:** Please share the test call associated with `O=[N+]([O-])c1c(F)cccc1Nc1cccc(F)c1` .
**A:** -1

**Q:** Please share the test call associated with `Nc1cc(O)cc2cccnc12` .
**A:** -1

**Q:** Please share the test call associated with C=C1CC[C@@H]2[C@](C)(COC(C)=O)[C@H](OC(C)=O)CC[C@@]2(C)[C@@H]1CC(NCc1ccc(F)cc1)C1=CCOC1=O (some centres undefined) .
**A:** -1

**Q:** Please share the test call associated with `C=C(C[n+]1ccccc1)[C@@H]1CC[C@]2(C(=O)OC)CC[C@]3(C)[C@H](CC[C@@H]4[C@@]5(C)CC[C@H](O)C(C)(C)[C@@H]5CC[C@]43C)[C@@H]12` .
**A:** -1

**Q:** Please share the test call associated with `Nc1c(C(=O)Nc2cccc3c2OCCO3)sc2nc3c(cc12)C(=O)CCC3` .
**A:** -1

###

# Test system: SF-268 CNS
# test.name: NCI-60 one-dose screen, 48 h
# measurement.parameters: 10 µM unless noted
The panel holds about 83,000 compounds, 20% with a hit somewhere; the sample as a whole holds those more often. Calls of active or inactive are those of the source. How the source made its calls: active means growth percent below 10; inactive means the rest.
Respond with a class label; see T for active, F for inactive

As a guide, the following entries are already answered.
* COc1ccc2nc(NC(=O)c3cccnc3Nc3cc(OC)c(OC)c(OC)c3)sc2c1 | T
* COc1ccc(/C=C2\CN(C(=O)CCN3CCC(=NO)CC3)C/C(=C\c3ccc(OC)cc3)C2=O)cc1 | F
* O=c1c(/C=C/c2ccco2)nnc(SCCN2CCOCC2)n1/N=C/c1ccc([N+](=O)[O-])cc1 | F
* COc1c2ccccc2c(OC)c2[nH]c(=O)ccc12 | F
* C=CC[N+]1(CC)CCN=C1CCCCCCCCCCCCCCCCC (stereo not given) | T

**Q:** Please share the test call associated with `c1ccc(CSc2ncnc3nc[nH]c23)nc1` .
**A:** F

**Q:** Please share the test call associated with `O=C(CCN1CCOCC1)Nc1ccc(Cn2nnc3c2C(=O)c2nnn(Cc4ccc(NC(=O)CCN5CCOCC5)cc4)c2C3=O)cc1` .
**A:** T

**Q:** Please share the test call associated with `S=c1[nH]nc(CSc2ncnc3c2c(-c2ccccc2)cn3-c2ccc(Cl)cc2)o1` .
**A:** F

**Q:** Please share the test call associated with `O=C1c2cc3c(cc2-c2c1c1cc(Cl)c(Cl)cc1c(=O)n2C[C@H](O)CO)OCO3` .
**A:** T

**Q:** Please share the test call associated with `CCCCCC(=O)Oc1ccc(/C(=C(\C)c2ccccc2)c2ccc(OCCN(CC)CC)cc2)cc1` .
**A:** F

###

Kindly state growth for each of the entries shown.
# Test system: UACC-257 melanoma
# test.name: NCI-60 one-dose screen, 48 h (100 = growth as untreated, 0 = no growth, -100 = all killed)
# measurement.parameters: 10 µM unless noted
This is part of a sample that, as a whole, favours compounds with a hit. Of some 83,000 tested, about 20% had one in any assay.
Give bare numbers, in %.

* COc1nc2c(cc1S(=O)(=O)c1ccccc1)CCc1c-2cnn1-c1ccc(Cl)cc1 | 106

Consider the following items and state reported growth for each.
1. CC(=O)/C(=C/c1cccc(Cl)c1)C(=O)c1ccccc1
2. CN(C)CC(=O)Nc1ccc(Cn2nnc3c2C(=O)c2nnn(Cc4ccc(NC(=O)CN(C)C)cc4)c2C3=O)cc1
3. O=C1c2c[n+](Cc3ccccc3)ccc2-c2nc3ccccc3c3ccnc1c23
4. O=C(O)c1ccccc1Nc1cccc(S(F)(F)(F)(F)F)c1
5. COc1ccc(S(=O)(=O)NCCCNc2nccc(-c3c(-c4cccc(N)c4)nc4sccn34)n2)cc1

**A:**
1. 72.3
2. -71.1
3. -67.9
4. 102
5. 113

Consider the following items and state reported growth for each.
1. NCCN1CCN(c2nccc(-c3ccc4ccccc4c3)n2)CC1
2. CCOC(=O)c1c2ncccc2n2c(=O)n(-c3ccc(Cl)cc3)nnc12
3. CC(C)Oc1nc2c(c(=O)n(C)c(=O)n2C)n1C
4. CC[C@H](Nc1nc(N)nc(C)c1C#N)c1nc2cccc(NCc3ccc(C(=O)NO)cc3)c2c(=O)n1-c1ccccc1
5. CC(C)n1cc2c(N)ncnc2n1
6. CCCCCC(=O)Oc1ccc(/C(=C(\C)c2ccccc2)c2ccc(OCCN(CC)CC)cc2)cc1
7. C=C1CCC2C3(C)COC(c4cccc(Cl)c4)OC3CCC2(C)C1/C=C/C1=CCOC1=O (stereo not given)

**A:**
1. 68.4
2. 102
3. 88
4. 0.817
5. 121
6. 7.01
7. 57.4

Consider the following items and state reported growth for each.
1. CCN(CC)CC#CCOC(=O)[C@]1(C)CCC[C@@]2(C)[C@H]1CC(C=O)=C1C=C(C(C)C)CC[C@@H]12
2. Oc1cc(O)c2c(=S)cc(-c3ccc(Cl)cc3)oc2c1
3. ClC1=C2NC=NC2n2c(nnc2-c2ccc(Cl)cc2)N1 (stereo not given)
4. CCOC(=O)CC(C)=N

**A:**
1. 85.4
2. 32.9
3. 101
4. 102

Consider the following items and state reported growth for each.
1. NS(=O)(=O)c1ccc(-n2ncc3c(=O)[nH]c(CN4CCN(c5cc6c(cc5F)c(=O)c(C(=O)O)cn6C5CC5)CC4)nc32)cc1
2. COc1cc(NCCCCCN=C(N)NC(N)=NC(C)C)c2ncccc2c1
3. CC(C)[C@H]1COC(=O)N1[C@@H]1C(=O)N([C@@H](CCC(=O)N2CCN(C3CCCC3)CC2)C(=O)N[C@@H]2CCCc3ccccc32)[C@@H]1/C=C/c1cccc(Br)c1

**A:**
1: 105; 2: -8.06; 3: -34.6

###

Kindly state growth for each of the entries shown.
# System: SNB-19 CNS
# test.name: NCI-60 one-dose screen, 48 h (100 = growth as untreated, 0 = no growth, -100 = all killed)
# measurement.parameters: 10 µM unless noted
Compounds without any hit were thinned out: in the full panel of roughly 83,000, 20% have a hit.
One number for each entry, in %.

• Cc1ccc(S(=O)(=O)N(CCc2ccc(Cl)cc2)S(=O)(=O)c2ccc(C)cc2)cc1 = 94.6

Consider the following items and state reported growth for each.
1. O=C(/C=C/c1cc2ccccc2[nH]c1=O)/C=C/c1cc2ccccc2[nH]c1=O
2. O=C(CN1CCN(c2cc3c(cc2F)c(=O)c(C(=O)O)cn3C2CC2)CC1)Nc1nc(-c2ccc(Cl)cc2)cs1
3. O=C(O)C(O)C(O)C(=O)O.[NH-]C1CCCCC1[NH-].[Pt+2] (stereo not given)
4. O=C(CCCCN1CCOCC1)Nc1ccc(Cn2nnc3c2C(=O)c2nnn(Cc4ccc(NC(=O)CCCCN5CCOCC5)cc4)c2C3=O)cc1
5. COc1ccc2nc3cc(Cl)ccc3c(N3CCN(c4nccc(Nc5ccccc5)n4)CC3)c2c1
6. C/C(Cc1ccc(Cl)cc1)=C(\c1ccc(OCCN2CCCCCC2)cc1)c1ccc(OC(=O)C2CCCCC2)cc1
7. CCCCCCCCCCCCN1CCCC(C)C1 (stereo not given)

**A:**
44.5
22.5
101
-86.2
85.2
77.6
101

Consider the following items and state reported growth for each.
1. Cc1nc2sc(C(=O)Nc3cccc4c3OCCO4)c(N)c2cc1C(C)O (stereo not given)
2. O=C1NC(=O)C(CC(=O)n2c(-c3ccccc3)nc3ccccc32)C(=O)N1

**A:**
[34.3, 89.6]

###

# Test system: A498 renal
# test.name: NCI-60 one-dose screen, 48 h (100 = growth as untreated, 0 = no growth, -100 = all killed)
# measurement.parameters: 10 µM unless noted
Compounds without any hit were thinned out: in the full panel of roughly 83,000, 20% have a hit.
Kindly state growth for each of the entries shown.
Answers are plain numbers, in %.

Use these answered entries as a reference point.
* COc1ccc(CCN2CC=Cn3c2nc2ccccc2c3=O)cc1 | -7.45
* COc1cc(-c2c3c(nc4c2c(C)nn4-c2ccccc2)-c2ccccc2C(=O)C3=O)cc(OC)c1OC | 83.7
* Oc1cc(O)c2c(=S)cc(-c3ccc(Cl)cc3)oc2c1 | 59.1
* Cc1[nH]n(-c2ccccc2)c2nc3nncc3c(-c3ccc(Cl)cc3)c12 | 102
* COc1ccc(/C(=C/c2ccc3ccccc3c2)c2nn[nH]n2)cc1OC | 14.5
* Cc1cc(Nc2nc(-c3cccnc3)nc3ccccc23)n[nH]1 | -19.7

Consider the following items and state reported growth for each.
1. COc1ccc(-c2c(C)noc2-c2ccc(O)cc2O)cc1
2. O=C1c2cc3c(cc2-c2c1c1cc(Cl)c(Cl)cc1c(=O)n2CCCn1ccnc1)OCO3
3. O=C(COCc1c(-c2ccccc2)no[n+]1[O-])Nc1ccc(C(=O)/C=C/c2ccc3c(c2)OCO3)cc1
4. O=C(/C=C/c1ccc(B(O)O)cc1)/C=C/c1ccc(B(O)O)cc1
5. Cc1csc2ccc(Cl)cc12

**A:**
1: 88; 2: -29.9; 3: 111; 4: 71.1; 5: 119

Origin of measurements: PubChem BioAssay (NCI)
